# targetUnderTest: HLA-G expressed on the cell surface (human, UniProt P17693 25-338)
# experimentDescription: cell-based or functional assay
reportedProperty: EC50 (nM), ADCC reporter assay on SKOV-3/HLA-G cells, afucosylated antibody

{"binder": "Afucosylated 2F1CDRH3#10 (antibody, human IgG1, kappa, V domains shown, afucosylated glycan (antibody produced with 400 µM 2-deoxy-2-fluoro-L-fucose in the medium)) VH: EVQLVESGGGLVQPGGSLRLSCAASGFTFSSYAMSWVRQAPGKGLEWVSRISGSGGYKYYADSVKGRFTISRDNSKNTLYLQMNSLRAEDTAVYYCAKEGTSSYRGWMDVWGQGTLVTVSS VL: IQMTQSPSSLSASVGDRVTITCRASQSISNYLNWYQQKPGKAPKLLIYATSTLQSGVPSRFSGSGSGTDFTLTISSLQPEDFATYYCQQSYTTPWTFGQGTKVEIKR", "endpointUnit": "nM", "val": 0.01}

The values you see were collected from patent EP4793288A1.
